Test system: 3T3-L1
protocol.summary: Inhibition of adipogenesis in mouse 3T3L1 cells assessed as fat accumulation at 300 uM after 8 days by oil red O-staining based by ELISA plate reader
Assay type: functional
experimental.context: 3T3-L1, 192 h
Think of 90% as a floor: if inhibition at 300 µM stands on it or above, it is satisfied; beneath it, not satisfied.

Request: Say whether COc1cc2oc(C)cc(=O)c2c(O)c1C/C=C(/C)CO[C@@H]1O[C@H](CO)[C@@H](O)[C@H](O)[C@H]1O [CNIDIMOSIDE B] shows inhibition at 300 µM of 90% or more.
Response: not satisfied

Request: And C/C(=C/Cc1c(O)cc2oc(CO)cc(=O)c2c1O)CO[C@@H]1O[C@H](CO)[C@@H](O)[C@H](O)[C@H]1O [HYDROXYCNIDIMOSIDE A] ?
Response: not satisfied

Request: Similarly, Cc1cc(=O)c2c(O)c3c(cc2o1)OC(C(C)(C)O[C@@H]1O[C@H](CO)[C@@H](O)[C@H](O)[C@H]1O)C3 (some centres not stated) [MONNIERISIDE G] ?
Response: satisfied

Request: Let us now turn to C=C(C)C(Cc1c(O)cc2oc(CO)cc(=O)c2c1O)O[C@@H]1O[C@H](CO)[C@@H](O)[C@H](O)[C@H]1O (some centres not stated) [MONNIERISIDE D]
Response: not satisfied

Request: Further, for C=C(C)C1Cc2c(cc3oc(CO[C@@H]4O[C@H](CO)[C@@H](O)[C@H](O)[C@H]4O)cc(=O)c3c2O)O1 (some centres not stated) [MONNIERISIDE F] ?
Response: satisfied

Request: Follow-up item: C/C(=C/Cc1c(O[C@@H]2O[C@H](CO)[C@@H](O)[C@H](O)[C@H]2O)cc2oc(CO)cc(=O)c2c1O)CO [MONNIERISIDE B]
Response: not satisfied

Request: Then this compound: C/C(=C/Cc1c(O)cc2oc(C)cc(=O)c2c1O)CO[C@@H]1O[C@H](CO)[C@@H](O)[C@H](O)[C@H]1O [CNIDIMOSIDE A]
Response: not satisfied

Request: Next entry: C=C(C)C(O)Cc1c(O[C@@H]2O[C@H](CO)[C@@H](O)[C@H](O)[C@H]2O)cc2oc(CO)cc(=O)c2c1O (some centres not stated) [MONNIERISIDE E]
Response: not satisfied

Request: Another compound to look at: C/C(=C/Cc1c(O[C@@H]2O[C@H](CO)[C@@H](O)[C@H](O)[C@H]2O)cc2oc(C)cc(=O)c2c1O)CO
Response: not satisfied

Request: Now give it for C=C(C)C(Cc1c(O)cc2oc(C)cc(=O)c2c1O)O[C@@H]1O[C@H](CO)[C@@H](O)[C@H](O)[C@H]1O (some centres not stated) [MONNIERISIDE C] too.
Response: not satisfied

Every entry's value here was drawn from ChEMBL document CHEMBL2086323.
